Cited source: patent US12162848B2

Overview of recorded pIC50 for various compounds
- Subject of test: PTPN2 enzyme (Homo sapiens, UniProt P17706)
- Sequence (P17706 1-415): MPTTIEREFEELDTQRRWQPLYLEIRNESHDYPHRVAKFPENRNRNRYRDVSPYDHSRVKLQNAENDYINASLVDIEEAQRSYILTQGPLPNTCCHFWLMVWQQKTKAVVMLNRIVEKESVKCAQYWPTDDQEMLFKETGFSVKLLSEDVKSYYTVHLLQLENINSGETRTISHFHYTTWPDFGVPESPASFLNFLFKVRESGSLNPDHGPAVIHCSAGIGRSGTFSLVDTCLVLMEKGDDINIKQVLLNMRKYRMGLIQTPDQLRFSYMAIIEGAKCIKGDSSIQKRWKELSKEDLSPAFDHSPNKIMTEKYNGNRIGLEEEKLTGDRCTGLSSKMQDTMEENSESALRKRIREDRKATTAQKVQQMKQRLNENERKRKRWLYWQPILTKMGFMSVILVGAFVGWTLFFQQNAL
pIC50: −log10 of the molar value.

# Compound, pIC50
rows = [
    ("O=C1CN(c2c(O)cc(C3CCCNC3)cc2F)S(=O)(=O)N1 (stereo not drawn) [EXAMPLE 1]", 6.92),
    ("O=C1CN(c2c(O)cc(CNC3CCCCC3)cc2F)S(=O)(=O)N1 [EXAMPLE 34]", 7.05),
    ("CC1(C)CCC[C@H](NCc2cc(O)c(N3CC(=O)NS3(=O)=O)c(F)c2)C1 [EXAMPLE 66]", 7.38),
    ("CC1(C)CCC[C@@H](NCc2cc(O)c(N3CC(=O)NS3(=O)=O)c(F)c2)C1 [EXAMPLE 51]", 7.46),
    ("CC(C)(O)c1ccc(-c2cc(O)c(N3CC(=O)NS3(=O)=O)c(F)c2)cc1 [EXAMPLE 22]", 6.75),
    ("O=C1CN(c2c(O)cc(-c3ccc(-c4ccccc4)nc3)cc2F)S(=O)(=O)N1 [EXAMPLE 30]", 6.83),
    ("CS(=O)(=O)N1CCC[C@H](NCc2cc(O)c(N3CC(=O)NS3(=O)=O)c(F)c2)C1 [EXAMPLE 75]", 7.43),
    ("COc1ncccc1-c1cc(O)c(N2CC(=O)NS2(=O)=O)c(F)c1 [EXAMPLE 25]", 6.58),
    ("CN1CCCC(c2cc(O)c(N3CC(=O)NS3(=O)=O)c(F)c2)C1 (stereo not drawn) [EXAMPLE 3]", 5.33),
    ("CC(C)CCN1CCC[C@H](NCc2cc(O)c(N3CC(=O)NS3(=O)=O)c(F)c2)C1 [EXAMPLE 63]", 6.82),
    ("O=C1CN(c2c(O)cc(-c3ccc(Cc4ccccc4)cc3)cc2F)S(=O)(=O)N1 [EXAMPLE 10]", 5.21),
    ("O=C1CN(c2c(O)cc(-c3ccccn3)cc2F)S(=O)(=O)N1 [EXAMPLE 7]", 6.25),
    ("O=C1CN(c2c(O)cc(-c3cccnc3)cc2F)S(=O)(=O)N1 [EXAMPLE 8]", 6.70),
    ("CC(C)CC(=O)N1CCN(Cc2cc(O)c(N3CC(=O)NS3(=O)=O)c(F)c2)CC1 [EXAMPLE 36]", 7.10),
    ("O=C1CN(c2c(O)cc(C3CCNCC3)cc2F)S(=O)(=O)N1 [EXAMPLE 2]", 5.89),
    ("COCCN1CCN(Cc2cc(O)c(N3CC(=O)NS3(=O)=O)c(F)c2)CC1 [EXAMPLE 44]", 6.88),
    ("O=C1CN(c2c(O)cc(CNC3CCOCC3)cc2F)S(=O)(=O)N1 [EXAMPLE 35]", 5.81),
    ("COCCN1CCC(Nc2cc(O)c(N3CC(=O)NS3(=O)=O)c(F)c2)CC1 [EXAMPLE 90]", 5.67),
]
